Where these numbers come from: PubChem BioAssay (NCI)

Test system: SK-MEL-5 melanoma
EXPERIMENT_NOTES: NCI-60 one-dose screen, 48 h (100 = growth as untreated, 0 = no growth, -100 = all killed)
COND: 10 µM unless noted
Compounds without any hit were thinned out: in the full panel of roughly 83,000, 20% have a hit. The source made the active and inactive calls. How the source made its calls: active means growth percent below 10; inactive means the rest.
Please respond with reported growth for every item in the list.

[
  {
    "MOLECULE": "CC(C)(C)NCCC(O)c1cc2c(Cl)cc(Cl)cc2c2cc(C(F)(F)F)ccc12 (configuration not stated)",
    "growth": "-63.2% (active)"
  },
  {
    "MOLECULE": "CN(C[C@H]1Cc2c(cccc2N2CCN(c3ncccn3)CC2)CN1)[C@H]1CCCc2cccnc21",
    "growth": "26.9% (inactive)"
  },
  {
    "MOLECULE": "Cc1ccc2nc(Cl)cc(=O)n2c1",
    "growth": "120% (inactive)"
  },
  {
    "MOLECULE": "c1cc(C2=N[C@@H]3c4ccccc4C[C@@H]3O2)nc(C2=N[C@@H]3c4ccccc4C[C@@H]3O2)c1",
    "growth": "102% (inactive)"
  },
  {
    "MOLECULE": "C[n+]1c(/C=C/c2c(O)ccc3ccccc23)ccc2ccccc21",
    "growth": "36% (inactive)"
  },
  {
    "MOLECULE": "COc1ccc(C2C=C(c3ccc(N)cc3)N=C3SC=CN32)cc1OC (configuration not stated)",
    "growth": "103% (inactive)"
  },
  {
    "MOLECULE": "Cn1ccc(=O)c(S(N)(=O)=O)c1",
    "growth": "112% (inactive)"
  },
  {
    "MOLECULE": "CCN(CC)c1ccc2[nH]c3c(C(N)=O)cc(=O)c(=O)c=3oc2c1",
    "growth": "-84.7% (active)"
  },
  {
    "MOLECULE": "NC(N)=Nc1nc2ccccc2o1",
    "growth": "93.8% (inactive)"
  },
  {
    "MOLECULE": "C=C1CCC2C(C)(CO)C(O)CCC2(C)C1C/C=C1/C(=O)OCC1Oc1ccccc1C (configuration not stated)",
    "growth": "93.6% (inactive)"
  }
]

Each of the following entries comes with a recorded value; kindly state growth for each.
1. Cn1c(=O)c2[nH]c(C3CC=CCC3)nc2n(C)c1=O (configuration not stated)
2. O=C1Nc2ccc(Cl)cc2C12Nc1cc(Cl)ccc1S2 (configuration not stated)
3. COc1ccc(C2=CC(c3cc(OC)c(OC)c(OC)c3)NC(=O)N2)cc1OC (configuration not stated)
4. COc1ccc2cc(-c3ccc(-c4ccc(C(=N)N)cc4)s3)ccc2c1
5. COc1cc(C2NN=C3c4ccccc4CCC32)cc(OC)c1OC (configuration not stated)
6. O=C(NNC(=O)N1c2ccccc2C=Cc2ccccc21)c1ccccc1
7. COc1ccc(Cn2cc3c(c2-c2cc(OC)c(OC)c(OC)c2)CCc2cnoc2-3)cc1

RESULT:
["111% (inactive)", "70.9% (inactive)", "18.5% (inactive)", "94.8% (inactive)", "72.2% (inactive)", "104% (inactive)", "17% (inactive)"]

Required: growth, one value per molecule below.
1. C=C1CC2(OC1=O)C(=O)N(CCCN1C(=O)C3(CC(=C)C(=O)O3)c3ccccc31)c1ccccc12 (configuration not stated)
2. COc1ccc(-c2nc(-c3nc4cc(C)c(C)cc4[nH]3)cc3c2[nH]c2ccccc23)cc1
3. COC1=C(OC)C(=O)C(CCCCCCCCCC[P+](c2ccccc2)(c2ccccc2)c2ccccc2)=C(C)C1=O
4. Cn1c2ccc(Br)cc2c2c3c(c4c5ccccc5[nH]c4c21)C(=O)N(O)C3=O
5. Brc1cccc(-c2cc(-c3ccc4c(c3)OCCCO4)[nH]n2)c1

RESULT:
74.4% (inactive)
45.7% (inactive)
-100% (active)
-97.8% (active)
39.1% [25 µM] (inactive)
